Source of measurements: the Human Domainome abundance scans (Beltran et al. 2025)

B1: Zinc finger homeobox protein 4, residues 2562 to 2617; numbered along this chain, Q86UP3 (parent)
chain: RLRTTITPEQLEILYEKYLLDSNPTRKMLDHIAREVGLKKRVVQVWFQNTRARERK

- Variants of: B1
- method_summary: abundance fitness (aPCA) (normalised: wild type 0, dead -1); higher = more abundant; growth selection in yeast, the domain comes from the species named
- run_parameters: Homo sapiens
measured_parameter: abundance fitness
Lab note: jot the number down without any unit.

H31N    -0.335
R34A    0.195
V36A    -0.103
K27S    0.074
N23M    -0.105

Query: # get_value(readout='abundance fitness', item= N23W )
Reply: -0.208

Query: What about this variant? Y18T
Reply: -0.874

Query: What about this variant? L20A
Reply: -0.103

Query: What about this variant? G37Q
Reply: -0.051

Query: What about this variant? L20C
Reply: -0.236

Query: What about this variant? H31R
Reply: -0.129

Query: What about this variant? K40S
Reply: 0.218

Query: What about this variant? P24S
Reply: -0.968

Query: What about this variant? R26I
Reply: 0.917

Query: What about this variant? E35L
Reply: -0.25

Query: What about this variant? I32T
Reply: -0.405

Query: What about this variant? R34T
Reply: -0.02

Query: What about this variant? R41Q
Reply: 0.476

Query: What about this variant? V36H
Reply: -0.418
